molecular target: fusion protein FIP1L1-PDGF-Rα (EOL-1 cell line) (Homo sapiens, UniProt P16234); assay: Inhibition of PDGF alpha receptor tyrosine kinase activity: proliferation of EOL-1 cells (CellTiter-Glo, 72 h); assay type: cell-based; settings: read-out: IC50 (concentration that inhibits 50% of the proliferation of the EOL-1 cells), 72 hours incubation
Sequence (P16234 579-1089, change not shown): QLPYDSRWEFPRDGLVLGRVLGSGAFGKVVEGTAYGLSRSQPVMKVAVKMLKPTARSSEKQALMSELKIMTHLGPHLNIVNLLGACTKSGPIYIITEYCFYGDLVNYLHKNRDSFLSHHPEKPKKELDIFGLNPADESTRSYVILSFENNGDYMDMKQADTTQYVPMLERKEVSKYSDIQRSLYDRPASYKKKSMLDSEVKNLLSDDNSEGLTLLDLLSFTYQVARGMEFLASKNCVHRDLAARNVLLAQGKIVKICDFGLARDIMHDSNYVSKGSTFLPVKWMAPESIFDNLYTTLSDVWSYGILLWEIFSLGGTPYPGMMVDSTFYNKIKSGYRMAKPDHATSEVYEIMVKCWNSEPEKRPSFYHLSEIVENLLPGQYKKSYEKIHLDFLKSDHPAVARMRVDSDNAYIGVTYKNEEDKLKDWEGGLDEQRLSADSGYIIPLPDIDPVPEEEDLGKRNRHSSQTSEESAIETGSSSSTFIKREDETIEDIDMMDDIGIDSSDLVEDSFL
Sequence (Q6UN15 1-339 partner): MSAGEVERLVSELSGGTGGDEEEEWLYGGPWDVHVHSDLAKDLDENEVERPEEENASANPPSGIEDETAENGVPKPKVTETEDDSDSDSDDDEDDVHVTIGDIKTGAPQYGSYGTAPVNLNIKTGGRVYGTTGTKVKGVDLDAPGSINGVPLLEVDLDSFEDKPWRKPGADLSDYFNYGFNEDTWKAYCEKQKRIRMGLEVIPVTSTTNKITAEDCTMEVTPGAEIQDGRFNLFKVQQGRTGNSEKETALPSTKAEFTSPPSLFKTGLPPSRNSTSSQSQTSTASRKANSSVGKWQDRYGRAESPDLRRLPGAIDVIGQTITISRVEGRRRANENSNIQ
Record form. Attribute: IC50. Fill in for each entry.
Give bare numbers, in nM.

Sample records with IC50:
{"COMPOUND": "CCn1c(N)c(C(=O)NC)c(=O)c2ccc(-c3ccc(CC(=O)Nc4ccccc4Cl)cc3)nc21", "TEST SYSTEM": "fusion protein FIP1L1-PDGF-Rα (EOL-1 cell line) (Homo sapiens, UniProt P16234)", "IC50 / nM": 1.6}
{"COMPOUND": "CCn1c(N)c(C(=O)NC)c(=O)c2ccc(-c3ccc(CC(=O)Nc4cc(F)cc(F)c4)cc3)nc21", "TEST SYSTEM": "fusion protein FIP1L1-PDGF-Rα (EOL-1 cell line) (Homo sapiens, UniProt P16234)", "IC50 / nM": 0.57}
{"COMPOUND": "CCn1c(N)c(C(=O)NC)c(=O)c2ccc(-c3ccc(CC(=O)Nc4ccccn4)cn3)nc21", "TEST SYSTEM": "fusion protein FIP1L1-PDGF-Rα (EOL-1 cell line) (Homo sapiens, UniProt P16234)", "IC50 / nM": 0.4}

Reported IC50, compound CCN1CCCC1CNC(=O)Cc1ccc(-c2ccc3c(=O)c(C(=O)NC)c(N)n(C4CCCC4)c3n2)cc1 (stereo not shown) : ____
3.2

* * *

molecular target: fusion protein Tel/PDGF-Rβ (BaF3 Tel/PDGF cells) (Homo sapiens, UniProt P09619); construct: the transmembrane and intracellular part of the PDGF-Rβ receptor; N-terminal part of the Tel transcription factor (ETV6); the other entry of the earlier key: ETV6 (P41212, Transcription factor ETV6); test: Inhibition of PDGF-Rβ tyrosine kinase activity: proliferation of BaF3 Tel/PDGF cells (CellTiter-Glo, 72 h); details: 72 hours incubation, read-out: IC50 (concentration that inhibits 50% of the proliferation of the BaF3 Tel/PDGF cells)
Sequence (P09619 with tags, fused parts or gaps): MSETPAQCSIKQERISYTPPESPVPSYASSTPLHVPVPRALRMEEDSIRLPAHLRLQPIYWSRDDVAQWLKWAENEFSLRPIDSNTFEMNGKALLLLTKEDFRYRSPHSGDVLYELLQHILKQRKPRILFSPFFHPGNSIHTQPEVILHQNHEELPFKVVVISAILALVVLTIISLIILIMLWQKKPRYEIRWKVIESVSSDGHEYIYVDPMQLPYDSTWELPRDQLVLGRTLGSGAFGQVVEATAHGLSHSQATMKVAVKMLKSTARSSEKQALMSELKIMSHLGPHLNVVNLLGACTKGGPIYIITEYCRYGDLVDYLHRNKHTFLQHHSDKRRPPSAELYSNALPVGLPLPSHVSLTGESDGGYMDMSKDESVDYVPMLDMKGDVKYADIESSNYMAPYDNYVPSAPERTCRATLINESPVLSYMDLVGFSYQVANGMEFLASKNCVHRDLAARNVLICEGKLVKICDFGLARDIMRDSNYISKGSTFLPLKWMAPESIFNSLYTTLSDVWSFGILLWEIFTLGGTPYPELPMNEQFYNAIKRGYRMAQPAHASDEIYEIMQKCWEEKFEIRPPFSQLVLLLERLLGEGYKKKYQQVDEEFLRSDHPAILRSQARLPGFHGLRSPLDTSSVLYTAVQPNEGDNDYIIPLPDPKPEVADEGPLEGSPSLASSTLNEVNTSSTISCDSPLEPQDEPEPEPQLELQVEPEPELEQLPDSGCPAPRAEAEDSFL
Record form. Attribute: pIC50. Fill in for each entry.
Give bare numbers, as −log10 of the molar value.

Sample records with pIC50:
{"COMPOUND": "CCN1CC(F)(F)C[C@H]1CNC(=O)Cc1ccc(-c2ccc3c(=O)c(C(=O)NC)c(N)n(CC)c3n2)cc1 [compound 24]", "ASSAY VALUE": 8.70}
{"COMPOUND": "CCn1c(N)c(C(=O)NC)c(=O)c2ccc(-c3ccc(CC(=O)NCCCc4ccccc4)cc3)nc21 [compound 41]", "ASSAY VALUE": 8.26}
{"COMPOUND": "CCN1CCCC1CNC(=O)CCCc1ccc(-c2ccc3c(=O)c(C(=O)NC)c(N)n(CC)c3n2)cc1 (stereo not shown) [compound 47]", "ASSAY VALUE": 7.32}

Consider now this further compound.
Please state recorded pIC50 (tested on fusion protein Tel/PDGF-Rβ (BaF3 Tel/PDGF cells) (Homo sapiens, UniProt P09619)) of CCn1c(N)c(C(=O)NC)c(=O)c2ccc(-c3ccc(CC(=O)NC[C@H]4CCCN4CCF)cn3)nc21 [compound 29]
7.46

* * *

Where a name gives a salt, the structure may show the parent alone.
Record form. Attribute: melting point. Fill in for each entry.

Sample records with melting point:
{"COMPOUND": "CCn1c(N)c(C(=O)NC)c(=O)c2ccc(-c3ccc(CC(=O)NCc4ccncc4)cc3)nc21 (as salt: HCl)", "melting point": "230 °C"}
{"COMPOUND": "CCN1CCCC1CN(C)C(=O)Cc1ccc(-c2ccc3c(=O)c(C(=O)NC)c(N)n(CC)c3n2)cc1 (stereo not shown)", "melting point": "138 °C"}
{"COMPOUND": "CCN1CCCC1CNC(=O)Cc1cccc(-c2ccc3c(=O)c(C(=O)NC)c(N)n(CC)c3n2)c1 (stereo not shown) (as salt: HCl)", "melting point": "213 °C"}

Consider now this further compound.
Reported melting point, compound CCn1c(N)c(C(=O)NC)c(=O)c2ccc(-c3ccc(CC(=O)Nc4ccccn4)cn3)nc21 (as salt: HCl) : ____
268 to 288 °C
